- System: SW837 (Colorectal Carcinoma)
- Test Method Notes: Bliss excess, mean over the matrix (fraction); higher = more synergy
Attribute Measured: Bliss excess
API doc: respond with a numeric literal and nothing else, no unit.

Molecule	Assay Value
Cc1cc2ncnn2cc1Nc1ncc2c(n1)n(C1CCOCC1)c(=O)n2C [AZD7648] + C=CCn1c(=O)c2cnc(Nc3ccc(N4CCN(C)CC4)cc3)nc2n1-c1cccc(C(C)(C)O)n1 [AZD1775] (first compound max 10 µM, partner max 1 µM)	0.0241

Query: Fill in: Bliss excess on SW837 (Colorectal Carcinoma), entry CN(CCO)CC[C@H](CSc1ccccc1)Nc1ccc(S(=O)(=O)NC(=O)c2ccc(N3CCC([C@@H](O)c4ccccc4-c4ccc(Cl)cc4)CC3)cc2)cc1S(=O)(=O)C(F)(F)F [AZD4320] + C1CN(CCC1(C(=O)N[C@@H](CCO)C2=CC=C(C=C2)Cl)N)C3=NC=NC4=C3C=CN4 [Capivasertib] (first compound max 1 µM, 7x7, partner max 3 µM)
Reply: -0.0453

Query: Enter recorded Bliss excess with SW837 (Colorectal Carcinoma) for CN(C)CCCOc1ccc(-c2ccc3ncc4c(c3c2)n(C2CCOCC2)c(=O)n4C)cn1 [AZD0156] + O=C(c1cc(Cc2n[nH]c(=O)c3ccccc23)ccc1F)N1CCN(C(=O)C2CC2)CC1 [Olaparib] (first compound max 3 µM, partner max 3 µM) here.
Reply: 0.0159

Query: Enter measured Bliss excess, system SW837 (Colorectal Carcinoma), for the molecule shown: CCN(CCO)CCCOc1ccc2c(Nc3cc(CC(=O)Nc4cccc(F)c4)[nH]n3)ncnc2c1 [AZD2811] + O=C(c1cc(Cc2n[nH]c(=O)c3ccccc23)ccc1F)N1CCN(C(=O)C2CC2)CC1 [Olaparib] (first compound max 1 µM, 7x7, partner max 10 µM)
Reply: 0.0027

====

- System: SW837 (Colorectal Carcinoma)
- Test Method Notes: combination Emax (second highest fraction inhibited in the dose matrix, 72 h); higher = more inhibition; extreme values may be limits of the assay
Attribute Measured: combination Emax

Answered examples (2):
Compound	Attribute Measured	Assay Value
COc1cccc2c1C(=O)c1c(O)c3c(c(O)c1C2=O)C[C@@](O)(C(=O)CO)C[C@@H]3O[C@H]1C[C@H](N)[C@H](O)[C@H](C)O1 [Doxorubicin] + Cc1cc2ncnn2cc1Nc1ncc2c(n1)n(C1CCOCC1)c(=O)n2C [AZD7648] (first compound max 1 µM, 7x7, partner max 10 µM)	combination Emax	0.516
CN(CCO)CC[C@H](CSc1ccccc1)Nc1ccc(S(=O)(=O)NC(=O)c2ccc(N3CCC([C@@H](O)c4ccccc4-c4ccc(Cl)cc4)CC3)cc2)cc1S(=O)(=O)C(F)(F)F [AZD4320] + C=CCn1c(=O)c2cnc(Nc3ccc(N4CCN(C)CC4)cc3)nc2n1-c1cccc(C(C)(C)O)n1 [AZD1775] (first compound max 1 µM, partner max 1 µM)	combination Emax	0.461

--- query ---
Query: Param request: combination Emax | system SW837 (Colorectal Carcinoma) | item O=C(c1cc(Cc2n[nH]c(=O)c3ccccc23)ccc1F)N1CCN(C(=O)C2CC2)CC1 [Olaparib] + COc1nnc2ccc(N3CCC(c4ccc(OCCN5CCN(C)C(=O)[C@H]5C)cc4)CC3)nn12 [AZD5153] (first compound max 10 µM, 7x7, partner max 1 µM)
Reply: 0.484

====

- Tested on: WM-115 (Melanoma)
- Test Method Notes: Bliss excess, mean over the matrix (fraction); higher = more synergy
Reported values of Bliss excess for individual entries
Could you keep your reply to the number by itself?

Solved entries:
Compound	Bliss excess
N#Cc1cnc(Nc2cc(NC[C@H]3CNCCO3)c(C(F)(F)F)cn2)cn1 [SRA737] + C=CCn1c(=O)c2cnc(Nc3ccc(N4CCN(C)CC4)cc3)nc2n1-c1cccc(C(C)(C)O)n1 [AZD1775] (first compound max 10 µM, partner max 1 µM)	-0.0524
CN(CCO)CC[C@H](CSc1ccccc1)Nc1ccc(S(=O)(=O)NC(=O)c2ccc(N3CCC([C@@H](O)c4ccccc4-c4ccc(Cl)cc4)CC3)cc2)cc1S(=O)(=O)C(F)(F)F [AZD4320] + CS(=O)(=O)CCNCc1ccc(-c2ccc3ncnc(Nc4ccc(OCc5cccc(F)c5)c(Cl)c4)c3c2)o1 [Lapatinib] (first compound max 1 µM, 7x7, partner max 10 µM)	0.0604
CC1(C)CCC(CN2CCN(c3ccc(C(=O)NS(=O)(=O)c4ccc(NCC5CCOCC5)c([N+](=O)[O-])c4)c(Oc4cnc5[nH]ccc5c4)c3)CC2)=C(c2ccc(Cl)cc2)C1 [Venetoclax] + C1CN(CCC1(C(=O)N[C@@H](CCO)C2=CC=C(C=C2)Cl)N)C3=NC=NC4=C3C=CN4 [Capivasertib] (first compound max 1 µM, 7x7, partner max 3 µM)	-0.0785

# context switch: different compound, same Bliss excess
Query: For the compound CN(C)CCCOc1ccc(-c2ccc3ncc4c(c3c2)n(C2CCOCC2)c(=O)n4C)cn1 [AZD0156] + C[C@@H]1COCCN1C2=NC(=NC(=C2)C3(CC3)[S@](=N)(=O)C)C4=C5C=CNC5=NC=C4 [AZD6738] (first compound max 1 µM, 7x7, partner max 10 µM) , give its measured Bliss excess value.
Reply: -0.0565

====

- Test system: MFM-223 (Breast Carcinoma)
- Test Method Notes: combination Emax (second highest fraction inhibited in the dose matrix, 72 h); higher = more inhibition; extreme values may be limits of the assay
# key: entry, value: combination Emax

Field: example entries. Status: answers known.
Compound	Attribute Measured	Assay Value
COc1cccc(OCCCN)c1-c1cc(Nc2cnc(C#N)cn2)n[nH]1 [Prexasertib] + Cc1cc2ncnn2cc1Nc1ncc2c(n1)n(C1CCOCC1)c(=O)n2C [AZD7648] (first compound max 1 µM, 7x7, partner max 10 µM)	combination Emax	0.763
COc1cc2ncnc(Nc3ccc(F)c(Cl)c3)c2cc1OCCCN1CCOCC1 [Gefitinib] + CC(C)n1c(=O)n(C)c2cnc3cc(F)c(-c4ccc(OCCCN5CCCCC5)nc4)cc3c21 [AZD1390] (first compound max 10 µM, 7x7, partner max 0.3 µM)	combination Emax	0.121
Cc1c2c(nn1C)CSCc1cc(n(C)n1)CSc1cc(c3ccccc3c1)OCCCc1c(C(=O)O)n(C)c3c-2c(Cl)ccc13 [AZD5991] + CCN(CCO)CCCOc1ccc2c(Nc3cc(CC(=O)Nc4cccc(F)c4)[nH]n3)ncnc2c1 [AZD2811] (first compound max 1 µM, 7x7, partner max 1 µM)	combination Emax	0.574

--- query ---
Query: Specify combination Emax for CC1(C)CCC(CN2CCN(c3ccc(C(=O)NS(=O)(=O)c4ccc(NCC5CCOCC5)c([N+](=O)[O-])c4)c(Oc4cnc5[nH]ccc5c4)c3)CC2)=C(c2ccc(Cl)cc2)C1 [Venetoclax] + C1CN(CCC1(C(=O)N[C@@H](CCO)C2=CC=C(C=C2)Cl)N)C3=NC=NC4=C3C=CN4 [Capivasertib] (first compound max 1 µM, 7x7, partner max 3 µM) and stop.
Reply: 0.639

====

- Tested on: TC-71 (Ewing's Sarcoma)
- Test Method Notes: Bliss excess, mean over the matrix (fraction); higher = more synergy
Attribute Measured: Bliss excess
Reply with just the number.

Worked examples, 5 compounds total:
Compound	Bliss excess
CN(CCO)CC[C@H](CSc1ccccc1)Nc1ccc(S(=O)(=O)NC(=O)c2ccc(N3CCC([C@@H](O)c4ccccc4-c4ccc(Cl)cc4)CC3)cc2)cc1S(=O)(=O)C(F)(F)F [AZD4320] + CN(C)CCCOc1ccc(-c2ccc3ncc4c(c3c2)n(C2CCOCC2)c(=O)n4C)cn1 [AZD0156] (first compound max 1 µM, 7x7, partner max 1 µM)	-0.0112
NC1(C(=O)N[C@@H](CCO)c2ccc(Cl)cc2)CCN(c2ncnc3[nH]ccc23)CC1 [Capivasertib] + Cn1cnc2c(F)c(Nc3ccc(Br)cc3Cl)c(C(=O)NOCCO)cc21 [Selumetinib] (first compound max 10 µM, 7x7, partner max 10 µM)	0.0203
Cc1cc2ncnn2cc1Nc1ncc2c(n1)n(C1CCOCC1)c(=O)n2C [AZD7648] + O=C(c1cc(Cc2n[nH]c(=O)c3ccccc23)ccc1F)N1CCN(C(=O)C2CC2)CC1 [Olaparib] (first compound max 10 µM, 7x7, partner max 10 µM)	-0.0106
CC1(C)CCC(CN2CCN(c3ccc(C(=O)NS(=O)(=O)c4ccc(NCC5CCOCC5)c([N+](=O)[O-])c4)c(Oc4cnc5[nH]ccc5c4)c3)CC2)=C(c2ccc(Cl)cc2)C1 [Venetoclax] + CCN(CCO)CCCOc1ccc2c(Nc3cc(CC(=O)Nc4cccc(F)c4)[nH]n3)ncnc2c1 [AZD2811] (first compound max 1 µM, 7x7, partner max 1 µM)	0.0227
C[C@@H](c1ccc2nccn2c1)n1nnc2ncc(-c3cnn(C)c3)nc21 [Savolitinib] + CN(CC[C@H](CSC1=CC=CC=C1)NC2=C(C=C(C=C2)S(=O)(=O)NC(=O)C3=CC=C(C=C3)N4CCC(CC4)[C@H](C5=CC=CC=C5C6=CC=C(C=C6)Cl)O)S(=O)(=O)C(F)(F)F)CCO [AZD4320] (first compound max 1 µM, 7x7, partner max 1 µM)	-0.0266

Query: Complete the entry with Bliss excess for COc1nnc2ccc(N3CCC(c4ccc(OCCN5CCN(C)C(=O)[C@H]5C)cc4)CC3)nn12 [AZD5153] + CC1(C)CCC(CN2CCN(c3ccc(C(=O)NS(=O)(=O)c4ccc(NCC5CCOCC5)c([N+](=O)[O-])c4)c(Oc4cnc5[nH]ccc5c4)c3)CC2)=C(c2ccc(Cl)cc2)C1 [Venetoclax] (first compound max 1 µM, 7x7, partner max 1 µM)
Reply: -0.0443

Query: Write down Bliss excess measured for item CN(CCO)CC[C@H](CSc1ccccc1)Nc1ccc(S(=O)(=O)NC(=O)c2ccc(N3CCC([C@@H](O)c4ccccc4-c4ccc(Cl)cc4)CC3)cc2)cc1S(=O)(=O)C(F)(F)F [AZD4320] + C[C@@H](Nc1cc(F)cc(F)c1)c1cc(C(=O)N(C)C)cc2c(=O)cc(N3CCOCC3)oc12 [AZD8186] (first compound max 1 µM, 7x7, partner max 3 µM)
Reply: -0.027

Query: Specify Bliss excess for Cc1c2c(nn1C)CSCc1cc(n(C)n1)CSc1cc(c3ccccc3c1)OCCCc1c(C(=O)O)n(C)c3c-2c(Cl)ccc13 [AZD5991] + C=CCn1c(=O)c2cnc(Nc3ccc(N4CCN(C)CC4)cc3)nc2n1-c1cccc(C(C)(C)O)n1 [AZD1775] (first compound max 1 µM, partner max 1 µM) and stop.
Reply: 0.0478

Query: Supply Bliss excess value. Item: Cc1c2c(nn1C)CSCc1cc(n(C)n1)CSc1cc(c3ccccc3c1)OCCCc1c(C(=O)O)n(C)c3c-2c(Cl)ccc13 [AZD5991] + CC1(C)CCC(CN2CCN(c3ccc(C(=O)NS(=O)(=O)c4ccc(NCC5CCOCC5)c([N+](=O)[O-])c4)c(Oc4cnc5[nH]ccc5c4)c3)CC2)=C(c2ccc(Cl)cc2)C1 [Venetoclax] (first compound max 1 µM, 7x7, partner max 1 µM)
Reply: 0.0733

Query: Give the value of Bliss excess reported for the following: Cn1cnc2c(F)c(Nc3ccc(Br)cc3Cl)c(C(=O)NOCCO)cc21 [Selumetinib] + CCN(CCO)CCCOc1ccc2c(Nc3cc(CC(=O)Nc4cccc(F)c4)[nH]n3)ncnc2c1 [AZD2811] (first compound max 10 µM, 7x7, partner max 1 µM)
Reply: 0.0298
